# Assayed target: NAMPT (human, recombinant, C-terminally His-tagged) (Homo sapiens)
# Test protocol: Time-Resolved Fluorescence Resonance Energy Transfer (TR-FRET) Binding Assay of NAMPT
# Condition description: without substrates; 6.8 nM NAMPT, 200 nM probe, 3 hours equilibration
Readout name: IC50 (nM)

| Compound | Readout name | Result unit | Observed |
| --- | --- | --- | --- |
| O=C(NCc1ccn2ccnc2c1)c1ccc(C2CCN(C(=O)c3ccccn3)C2)cc1 (stereo not shown) [Example 611] | IC50 | nM | 288 |
| O=C(Nc1ccc(C(=O)NCC2CCS(=O)(=O)C2)cc1)Nc1ccc2nccn2c1 (stereo not shown) [Example 24] | IC50 | nM | 167 |
| O=C(NCc1ccn2ccnc2c1)c1ccc(C2CCN(C(=O)C3CCCCC3)CC2)cc1 [Example 502] | IC50 | nM | 169 |
| CC(=O)N1CCC(c2ccc(C(=O)NCc3ccn4ccnc4c3)s2)CC1 [Example 258] | IC50 | nM | 113 |

###

# Assayed target: NAMPT (human, recombinant, C-terminally His-tagged) (Homo sapiens, UniProt P43490)
# Sequence (P43490 whole entry): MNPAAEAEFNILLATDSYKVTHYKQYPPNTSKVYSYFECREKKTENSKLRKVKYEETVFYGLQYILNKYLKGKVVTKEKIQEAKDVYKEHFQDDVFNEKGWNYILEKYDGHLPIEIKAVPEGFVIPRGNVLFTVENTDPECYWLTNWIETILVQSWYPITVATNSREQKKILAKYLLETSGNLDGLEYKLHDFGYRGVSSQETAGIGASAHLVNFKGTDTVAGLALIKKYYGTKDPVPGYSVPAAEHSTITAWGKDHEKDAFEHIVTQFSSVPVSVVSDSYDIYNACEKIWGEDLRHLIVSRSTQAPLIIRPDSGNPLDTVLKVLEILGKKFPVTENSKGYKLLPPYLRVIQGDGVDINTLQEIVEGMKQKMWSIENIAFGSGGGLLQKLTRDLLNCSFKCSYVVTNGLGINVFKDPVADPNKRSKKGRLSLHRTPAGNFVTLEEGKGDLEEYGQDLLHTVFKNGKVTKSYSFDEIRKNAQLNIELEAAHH
# Test protocol: Time-Resolved Fluorescence Resonance Energy Transfer (TR-FRET) Binding Assay of NAMPT
# Condition description: without substrates; 6.8 nM NAMPT, 200 nM probe, 3 hours equilibration
pIC50: −log10 of the molar value.

| Compound | Assayed target | Result operator | pIC50 |
| --- | --- | --- | --- |
| O=C(NCc1ccn2ccnc2c1)Nc1ccc(C2CCN(C(=O)Cc3ccccc3)CC2)cc1 [Example 716] | NAMPT (human, recombinant, C-terminally His-tagged) (Homo sapiens, UniProt P43490) | = | 7.30 |
| CC(C)(O)Cn1cc(-c2ccc(C(=O)NCc3ccc4ncnn4c3)s2)cn1 [Example 621] | NAMPT (human, recombinant, C-terminally His-tagged) (Homo sapiens, UniProt P43490) | = | 6.94 |
| CC(C)(C)OC(=O)Nc1ccc(C(=O)NCc2ccn3ccnc3c2)cc1F [Example 292] | NAMPT (human, recombinant, C-terminally His-tagged) (Homo sapiens, UniProt P43490) | = | 5.81 |
| CC(C)(O)CC(=O)N1CC[C@H](Oc2ccc(C(=O)NCc3ccn4ccnc4c3)cc2)C1 [Example 354] | NAMPT (human, recombinant, C-terminally His-tagged) (Homo sapiens, UniProt P43490) | < | 5.00 |
| CC[C@H](C)C(=O)N1CC(O)(c2ccc(C(=O)NCc3ccn4ccnc4c3)s2)C1 [Example 405] | NAMPT (human, recombinant, C-terminally His-tagged) (Homo sapiens, UniProt P43490) | = | 7.11 |
| CC(C)(O)Cn1cc(-c2ccc(C(=O)NCc3ccn4ccnc4c3)o2)cn1 [Example 483] | NAMPT (human, recombinant, C-terminally His-tagged) (Homo sapiens, UniProt P43490) | = | 6.89 |
| O=C(NCc1ccn2ccnc2c1)Nc1ccc(C2CN(C(=O)CC3CC3)C2)cc1 [Example 454] | NAMPT (human, recombinant, C-terminally His-tagged) (Homo sapiens, UniProt P43490) | = | 6.39 |
| O=C(NCc1ccn2ccnc2c1)c1ccc(C2(O)CCN(C(=O)c3ccccc3)CC2)s1 [Example 556] | NAMPT (human, recombinant, C-terminally His-tagged) (Homo sapiens, UniProt P43490) | = | 8.27 |
| CS(=O)(=O)N1CC=C(c2ccc(C(=O)NCc3ccn4ccnc4c3)s2)CC1 [Example 242] | NAMPT (human, recombinant, C-terminally His-tagged) (Homo sapiens, UniProt P43490) | = | 7.24 |
| O=C(CCC(F)(F)F)Nc1ccc(NC(=O)Nc2ccc3nccn3c2)cc1 [Example 45] | NAMPT (human, recombinant, C-terminally His-tagged) (Homo sapiens, UniProt P43490) | = | 6.06 |
| O=C(NCc1ccc2nccn2c1)c1ccc(C2=CCN(C(=O)CN3CCOCC3)CC2)cc1 [Example 92] | NAMPT (human, recombinant, C-terminally His-tagged) (Homo sapiens, UniProt P43490) | = | 6.74 |
| CC(C)C(=O)N1CC=C(c2ncc(C(=O)NCc3ccn4ccnc4c3)s2)CC1 [Example 320] | NAMPT (human, recombinant, C-terminally His-tagged) (Homo sapiens, UniProt P43490) | = | 7.02 |
| Cn1nccc1-c1ccc(C(=O)NCc2ccn3ccnc3c2)s1 [Example 363] | NAMPT (human, recombinant, C-terminally His-tagged) (Homo sapiens, UniProt P43490) | = | 6.23 |
| O=C(NCc1ccc2nccn2c1)c1cnc(N2CC(c3ccc(Cl)cc3)OC2=O)s1 (stereo not shown) [Example 158] | NAMPT (human, recombinant, C-terminally His-tagged) (Homo sapiens, UniProt P43490) | = | 6.47 |
| CC(C)Cn1cc(-c2sc(C(=O)NCc3ccn4ccnc4c3)cc2Cl)cn1 [Example 578] | NAMPT (human, recombinant, C-terminally His-tagged) (Homo sapiens, UniProt P43490) | = | 6.17 |
| CC[C@H](C)C(=O)N1CC=C(c2ccc(C(=O)NCc3ccn4ccnc4c3)o2)CC1 [Example 748] | NAMPT (human, recombinant, C-terminally His-tagged) (Homo sapiens, UniProt P43490) | = | 6.25 |
| Cc1cc(CC(=O)N(C[C@H]2CCCO2)c2ncc(C(=O)NCc3ccn4ccnc4c3)s2)no1 [Example 193] | NAMPT (human, recombinant, C-terminally His-tagged) (Homo sapiens, UniProt P43490) | = | 6.29 |
| CC(C)C(=O)N1CC=C(c2ccc(NC(=O)NCc3ccn4ccnc4c3)c(F)c2)CC1 [Example 306] | NAMPT (human, recombinant, C-terminally His-tagged) (Homo sapiens, UniProt P43490) | = | 6.84 |
| O=C(NCc1ccn2ccnc2c1)Nc1ccc(C2CCN(C(=O)[C@H]3CCCO3)CC2)cc1 [Example 289] | NAMPT (human, recombinant, C-terminally His-tagged) (Homo sapiens, UniProt P43490) | = | 6.81 |
| O=C(Nc1ccc(C(=O)NCC2CCCO2)cc1)Nc1ccc2nccn2c1 (stereo not shown) [Example 16] | NAMPT (human, recombinant, C-terminally His-tagged) (Homo sapiens, UniProt P43490) | = | 6.39 |
| O=C(NCc1ccn2ccnc2c1)c1ccc(C2CCN(C(=O)c3ccc(F)c(F)c3)CC2)cc1 [Example 701] | NAMPT (human, recombinant, C-terminally His-tagged) (Homo sapiens, UniProt P43490) | = | 6.44 |
| CC1(Cn2cc(-c3ccc(C(=O)NCc4ccn5ccnc5c4)o3)cn2)CCOCC1 [Example 734] | NAMPT (human, recombinant, C-terminally His-tagged) (Homo sapiens, UniProt P43490) | = | 7.85 |
| O=C(NCc1ccn2ccnc2c1)c1cnc(N(C[C@H]2CCCO2)C(=O)CCc2cnoc2)s1 [Example 195] | NAMPT (human, recombinant, C-terminally His-tagged) (Homo sapiens, UniProt P43490) | = | 7.61 |
| O=C(CCC1CCCC1)Nc1ccc(C(=O)NCc2ccc3nccn3c2)cc1 [Example 81] | NAMPT (human, recombinant, C-terminally His-tagged) (Homo sapiens, UniProt P43490) | = | 7.81 |
| CCC(C)CC(=O)N1CCC(c2ccc(C(=O)NCc3ccn4ccnc4c3)cc2)C1 (stereo not shown) [Example 582] | NAMPT (human, recombinant, C-terminally His-tagged) (Homo sapiens, UniProt P43490) | = | 6.15 |
| CN1CCC(C(=O)Nc2ccc(NC(=O)Nc3ccc4nccn4c3)cc2)CC1 [Example 48] | NAMPT (human, recombinant, C-terminally His-tagged) (Homo sapiens, UniProt P43490) | < | 5.00 |
| CCCn1cc(-c2ccc(C(=O)NCc3ccn4ccnc4c3)s2)cn1 [Example 293] | NAMPT (human, recombinant, C-terminally His-tagged) (Homo sapiens, UniProt P43490) | = | 7.56 |
| O=C(NCc1ccn2ccnc2c1)Nc1ccc(C2CN(C(=O)C3CCOCC3)C2)cc1 [Example 460] | NAMPT (human, recombinant, C-terminally His-tagged) (Homo sapiens, UniProt P43490) | = | 6.24 |
| O=C(NCc1ccn2ccnc2c1)c1cnc(N(C[C@H]2CCCO2)C(=O)Cc2cscn2)s1 [Example 196] | NAMPT (human, recombinant, C-terminally His-tagged) (Homo sapiens, UniProt P43490) | = | 6.45 |
| O=C(NCc1ccn2ccnc2c1)c1ccc(C2CN(C(=O)c3ccccn3)C2)cc1 [Example 661] | NAMPT (human, recombinant, C-terminally His-tagged) (Homo sapiens, UniProt P43490) | = | 6.34 |
| O=C(CC1CCCC1)Nc1ccc(C(=O)NCc2cn3ccnc3cn2)cc1 [Example 679] | NAMPT (human, recombinant, C-terminally His-tagged) (Homo sapiens, UniProt P43490) | = | 7.64 |
| O=C(NCc1ccn2ccnc2c1)c1ccc(C2CCN(C(=O)c3ccccc3F)CC2)o1 [Example 735] | NAMPT (human, recombinant, C-terminally His-tagged) (Homo sapiens, UniProt P43490) | = | 6.19 |
| O=C(Nc1ccc(C2CCN(C(=O)C3CCCO3)CC2)cc1)Nc1ccc2nccn2c1 (stereo not shown) [Example 113] | NAMPT (human, recombinant, C-terminally His-tagged) (Homo sapiens, UniProt P43490) | = | 6.45 |
| O=C(NCc1ccn2ccnc2c1)c1ccc(C2CCN(C(=O)c3ccccc3F)CC2)s1 [Example 677] | NAMPT (human, recombinant, C-terminally His-tagged) (Homo sapiens, UniProt P43490) | = | 8.75 |
